study_target: T1, Human VSIG4-L-CHO (human VSIG4 long isoform on CHO-K1 cells) (human, UniProt Q9Y279 20-399)
T1 construct: also called hVSIG4-L (flow cytometry)
T1 sequence: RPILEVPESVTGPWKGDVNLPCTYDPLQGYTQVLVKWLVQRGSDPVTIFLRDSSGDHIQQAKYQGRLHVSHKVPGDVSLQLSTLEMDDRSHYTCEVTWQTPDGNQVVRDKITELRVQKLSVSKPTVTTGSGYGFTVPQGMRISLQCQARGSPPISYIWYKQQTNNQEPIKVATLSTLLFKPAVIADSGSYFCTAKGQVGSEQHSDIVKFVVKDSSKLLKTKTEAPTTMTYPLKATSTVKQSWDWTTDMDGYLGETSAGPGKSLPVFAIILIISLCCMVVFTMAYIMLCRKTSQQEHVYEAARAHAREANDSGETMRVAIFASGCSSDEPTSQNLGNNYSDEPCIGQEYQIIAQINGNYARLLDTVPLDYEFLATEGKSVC
test_method_notes: flow cytometry (FJB), 200 nM mAb, huVSIG4-L CHO-K1 cells
Decide by Binding (200 nM) MFI: equal to or exceeding 30000 MFI means label 1, less means label 0.

binder: 14C05 mouse/human chimeric IgG4 (S228P) kappa (antibody, V domains shown) VH: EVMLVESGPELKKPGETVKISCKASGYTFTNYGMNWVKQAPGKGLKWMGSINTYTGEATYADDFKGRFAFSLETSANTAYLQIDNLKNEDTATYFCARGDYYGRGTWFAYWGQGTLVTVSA VL: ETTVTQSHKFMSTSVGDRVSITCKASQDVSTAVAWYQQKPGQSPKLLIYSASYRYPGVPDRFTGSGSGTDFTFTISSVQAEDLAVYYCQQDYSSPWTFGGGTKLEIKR
qualitative_label: label 1

binder: 16G02 mouse/human chimeric IgG4 (S228P) kappa (antibody, V domains shown) VH: QVQLQQSGAELMKPGASVKISCKATGYTFSSYWIEWVKQRPGHGLEWIGEILPGSSTTNYNEKFKGKATFTADTSSNTAYMQLSSLTSEDSAVYYCAREDHFITTARYAMDYWGQGTSVTVSS VL: DIVLTQSPASLAMSVGQKVTMSCKSSQSLLNSSNQKNYLAWYQQKPGQSPKLLLYFASTRESGVPDRFIGSGSGTDFTLTISSVQAEDLADYFCQQHYSNPLTFGAGTKLELKR
qualitative_label: label 1

binder: 13H11 mouse/human chimeric IgG4 (S228P) kappa (antibody, V domains shown) VH: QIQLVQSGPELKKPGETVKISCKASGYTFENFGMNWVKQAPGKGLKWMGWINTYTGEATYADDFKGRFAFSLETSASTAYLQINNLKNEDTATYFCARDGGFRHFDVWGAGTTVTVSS VL: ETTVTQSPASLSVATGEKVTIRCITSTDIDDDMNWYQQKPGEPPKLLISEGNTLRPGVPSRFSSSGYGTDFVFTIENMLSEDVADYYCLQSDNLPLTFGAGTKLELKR
qualitative_label: label 1

binder: 15A06 mouse/human chimeric IgG4 (S228P) kappa (antibody, V domains shown) VH: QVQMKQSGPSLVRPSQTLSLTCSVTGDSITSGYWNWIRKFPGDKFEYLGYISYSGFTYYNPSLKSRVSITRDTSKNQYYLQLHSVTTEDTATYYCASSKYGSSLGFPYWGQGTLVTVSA VL: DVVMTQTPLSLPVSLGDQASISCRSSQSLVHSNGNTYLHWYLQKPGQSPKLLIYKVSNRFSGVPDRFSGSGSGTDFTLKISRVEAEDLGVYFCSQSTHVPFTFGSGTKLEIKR
qualitative_label: label 0

binder: 16E10 mouse/human chimeric IgG4 (S228P) kappa (antibody, V domains shown) VH: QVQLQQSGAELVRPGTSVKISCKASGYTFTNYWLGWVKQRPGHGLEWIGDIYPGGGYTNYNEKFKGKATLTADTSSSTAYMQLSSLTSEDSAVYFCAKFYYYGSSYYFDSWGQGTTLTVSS VL: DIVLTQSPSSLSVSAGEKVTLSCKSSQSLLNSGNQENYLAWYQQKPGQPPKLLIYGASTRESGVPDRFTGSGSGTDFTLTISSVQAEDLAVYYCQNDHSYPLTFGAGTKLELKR
qualitative_label: label 0
